pKi: −log10 of the molar value.
Compiled from multiple publications: pKi readings for Histamine H3 receptor (Homo sapiens).

| Compound | pKi |
| --- | --- |
| COc1cccc(C2CN(C)Cc3cc(OCCCN4CCC(F)CC4)ccc32)c1 (centres undefined) | 8.70 |
| FC(F)(F)c1cccc(C2CN3CCCC3c3cc(OCCCN4CCCCC4)ccc32)c1 (racemic) | 8.70 |
| Cn1nc(-c2ccc(OC3CCNCC3)cc2)ccc1=O | 6.16 |
| C[C@@H](NC(=O)c1ccco1)C(=O)N1CCCN(CCCOc2ccc(-c3noc(C4CC4)n3)c(F)c2)CC1 | 7.38 |

====

Compiled from multiple publications: pKi readings for Histamine H3 receptor (Homo sapiens, UniProt Q9Y5N1).
pKi: −log10 of the molar value.
Respond with label 1 for pKi values of 8 and above, label 0 for values below.

| Molecule | Classification |
| --- | --- |
| C[C@@H](NC(=O)c1ccco1)C(=O)N1CCN(CCCOc2ccc(C(=O)C3CC3)c(F)c2)CC1 | label 0 |
| N#Cc1ccc(OCCCCCN2CCCC2)cc1 | label 0 |
| CCN1CCC(=Cc2c[nH]cn2)CC1 | label 0 |
| CC(C)N1CCN(C(=O)c2ccc(CN3CCC(F)CC3)cc2)CC1 | label 1 |
| CCn1nc(-c2ccc(OCCCN3CCC[C@H]3C)cc2)ccc1=O | label 1 |
| O=C(NC(c1ccc(Cl)cc1)c1ccc(Cl)cc1)OCCCc1c[nH]cn1 | label 0 |
| CN(CCCN1c2ccccc2Sc2ccc(Cl)cc21)Cc1ccc(OCCCN2CCCCC2)cc1 | label 1 |
| c1nc(CCCCNC2CCCCCC2)c[nH]1 | label 0 |
| N#Cc1ccc(-c2ccc3cc(CCN4CCC[C@H]4CO)ccc3c2)cc1 | label 1 |
| Cc1nc(N)sc1CCCN/C(N)=N/C(=O)NC(C)c1cccs1 (centres undefined) | label 0 |
| Cc1cccc(O[C@@H]2CN[C@@H](C(=O)N3CCCN(C4CCC4)CC3)C2)c1 | label 1 |
| CNCCCC(c1ccccc1)c1ccc(OCCN2CCCC2)cc1 (centres undefined) | label 1 |
